Hey, just so you know, these numbers are from ChEMBL document CHEMBL3433997.

Below is a list of entries, each paired with its recorded inhibition value.
Target: Solute carrier family 2, facilitated glucose transporter member 1 (Homo sapiens)
Assay: ST_JUDE_LEISH: Cytotoxicity at 2uM final concentration against transgenic Leishmania Mexicana promastigotes LmGLUT1 that are glucose transport deficient and complemented with the human glucose transporter GLUT1. Activity is measured by DNA content using SYBR green in vitro
Assay type: functional
propertyLabel: inhibition

1) Cc1cc(Nc2ccccc2)nc(NCCOc2ccccc2)n1 : 5.53%
2) COc1ccc2[nH]c(C)cc(=NN=Cc3ccc(F)cc3)c2c1 : 4.47%
3) COc1ccccc1C1CCN(C2CCC(NC(=O)/C=C/c3cc(F)cc(C(F)(F)F)c3)CC2)CC1 (centres undefined) : -0.82%
4) CCCc1ccc(S(=O)(=O)NC2CCN(c3ccnc(Nc4ccc(F)cc4)n3)C2)cc1 (centres undefined) : 0.73%
5) CCCN(CCC)C(=O)c1cc(C(=O)N[C@@H](Cc2ccccc2)[C@H](O)CNCc2cccc(C(F)(F)F)c2)cc(N2CCCCS2(=O)=O)c1 : -1.33%
6) CCCCOC(=O)C1=C(C)NC2=C(C(=O)CC(c3ccc(OC)c(OC)c3)C2)C1c1ccc(O)cc1 (centres undefined) : 10.4%
7) COCCOCCOCCn1ccc2c3c(N)nc(N)nc3ccc21 : 4.65%
8) CN(/N=C/c1ccc(Cl)cc1)c1nc(NCCc2ccc(O)cc2)nc(N2CCNCC2)n1 : 7.69%
9) O=C(CSc1cccc[n+]1[O-])c1ccc(Cc2ncc(C(F)(F)F)cc2Cl)s1 : 9.45%
10) O=C(/C=C/c1ccc(Cl)c(Cl)c1)NCCCCCN1CCCC(CNS(=O)(=O)c2ccc(F)cc2)C1 (centres undefined) : -1.15%
11) CCO[C@H]1CN[C@H](C#Cc2cc3c(Nc4ccc(OCc5cccc(F)c5)c(Cl)c4)ncnc3s2)C1 : 0.74%
12) Cc1ccc(NS(=O)(=O)c2ccc(C(C)N3CCC(N4CCCCC4)CC3)cc2)cc1C (centres undefined) : -2.42%
13) O=C(/C=C/c1ccc([N+](=O)[O-])cc1)N1CCC(NS(=O)(=O)c2ccc(Br)cc2)CC1 : -0.08%
14) CC(Sc1nnc(-c2ccccc2Br)[nH]1)C(=O)Nc1ccc(F)cc1 (centres undefined) : 10.4%
15) CCn1c(-c2nonc2N)nc2c(-c3cccc(NC(=O)Nc4cccc(C#N)c4)c3)ncc(OCCCN)c21 : 4.72%
16) C=CC[C@H](C[C@H](O)[C@H](Cc1ccccc1)NC(=O)c1ccc(-n2cccn2)cc1)C(=O)NC1CCCCC1 : 9.63%
17) Cc1cccc2nc(-c3cccc(-c4ccc(CNCCCN5CCCC5=O)cc4)c3)[nH]c12 : 9.26%
18) Cc1nc(Nc2ccc(C)c(Cl)c2)c2c(C)noc2n1 : 5.28%
19) O=C(NC1CCCCN(Cc2ccccc2O)C1)c1cccc(C(F)(F)F)c1 (centres undefined) : 2.43%

----------
Below is a list of entries, each paired with its recorded inhibition value.
Target: Hexose transporter 1 (Plasmodium falciparum) (UniProt O97467)
Assay: ST_JUDE_LEISH: Cytotoxicity at 2uM final concentration against transgenic Leishmania Mexicana promastigotes LmPfHT that are glucose transport deficient and complemented with the Plasmodium falciparum hexose transporter. Activity is measured by DNA content using SYBR green in vitro
Type: functional
propertyLabel: inhibition (%)

1. COc1ccc(-c2nc3c4ccccc4c4ccc(I)cc4c3[nH]2)cc1 : 2.48
2. CCCc1cc(Cc2cnc(N)nc2N)cc(CC)c1O : 0.94
3. CC1(C)NC(N)=NC(=N)N1OCCOc1cccc(C(F)(F)F)c1 : 0.2
4. COc1ccc(C(=O)Nc2ccc(-c3nc4cc(C)ccc4[nH]3)cc2)cc1OC : 2.08
5. Cc1cc(N(C)CCCN(C)C)nc(Nc2ccc(Cl)cc2)n1 : 1.73
6. CC[C@H](C)[C@H](NC(=O)[C@H](CC1CCCCC1)[C@H](CC)N(O)C=O)C(=O)Nc1ccccn1 : 8.39
7. CC(C)(C)n1nnnc1C(c1cccnc1)N(Cc1ccccc1)Cc1ccc(Cl)cc1 (centres undefined) : 10.2
8. CC1CCCN(Cc2c(O)ccc3c(O)c(-c4nc5ccccc5s4)c(=N)oc23)C1 (centres undefined) : 8.25
9. CCn1ccc2c(N3CCCS3(=O)=O)cc(C(=O)N[C@@H](Cc3ccccc3)[C@H](O)CNC3CCCCC3)cc21 : 1.64
10. Cc1c(Cl)ccc2c(C(=O)Nc3ccncc3)cc(-c3cccnc3)nc12 : -2.06
11. S=C(NCCCCCN1CCC(c2c[nH]c3ccccc23)CC1)Nc1ccc(Cl)c(Cl)c1 : 1.44
12. COc1ccc2c(NN=Cc3ccc(N(C)C)cc3)ccnc2c1 : 10.8
13. CC(C)(C)c1nn(-c2ccccc2)c2[nH]c(=O)c(CNCc3ccc4c(c3)OCO4)cc12 : 3.28
14. CCCCc1cc(Cc2cnc(N)nc2N)cc(OC)c1OC : 2.41
15. Cc1cccc2nc(-c3cccc(-c4cccc(NC(=O)c5cccnc5Cl)c4)c3)[nH]c12 : 2.51
16. COCCn1c(Sc2ncnc3sccc23)nc2ccccc21 : 2.13
17. CN(C)[C@@H]1C(O)=C(C(N)=O)C(=O)[C@@]2(O)C(O)=C3C(=O)c4c(O)ccc(C#Cc5ccccn5)c4C[C@H]3C[C@@H]12 : -0.62
18. Clc1ccc(-c2csc3ncnc(Cl)c23)cc1 : 0.54
19. Cc1cc(N[C@@H](Cc2ccccc2)C(=O)NC2CCCC2)nc(Nc2ccccc2)n1 : 7.28
20. COc1cccc2sc(Nc3nc(-c4ccccn4)cs3)nc12 : 1.96
21. COc1cccc(Nc2nc(Nc3cccc(C#N)c3)cc(C(F)(F)F)n2)c1 : 6.64
22. COc1cc2nc(N(C)C)nc(Nc3ccc(OCc4ccccc4)cc3)c2cc1OC : 1.34
23. CN(C(=O)Cc1ccc(Cl)cc1)C1CCN(CCCCCNC(=O)/C=C/c2ccc(Cl)c(Cl)c2)CC1 : 2.1
24. CC(C)CC(=O)N(Cc1ccc(-c2ccc(CNC3Cc4ccccc4C3)cc2)cc1)C1CCNCC1 : 5.79
25. O=C(Nc1ccc(C(=O)OCC2CCCN3CCCCC23)cc1)c1ccc(Cl)c(Cl)c1 (centres undefined) : -0.05
26. COc1cc(NCC(O)CNc2cc(OC)c3ccccc3n2)nc2ccccc12 : 12.5
27. COc1nc2c(CCN3CC[C@@H](NCc4cc(C#N)c5c(c4)CCO5)[C@@H](O)C3)ccnc2cc1F : 4.07
28. Cc1ccc(S(=O)(=O)N2CCN(C(=O)c3cc(-c4cccs4)n[nH]3)CC2)c(C)c1 : 2.34
29. O=C(Cn1c(CCc2cccc(F)c2F)cc(=O)c2cccnc21)N(CCCn1ccnc1)Cc1ccc(-c2ccc(C(F)(F)F)cc2)cc1 : 1.17
30. CCCCOc1ccc(C(O)C(CN2CCCCC2)c2ccccc2)cc1 (centres undefined) : 1.36
31. C=CCOC(=O)N1CCC(CNCc2cccc(-c3ccc(-c4nc5cccc(C)c5[nH]4)s3)c2)C1 (centres undefined) : -0.37
32. CO/N=C(\C)c1ccc2c(c1)CCN(CCC1CCC(NC(=O)c3cccc(-c4noc(C)n4)c3)CC1)CC2 (centres undefined) : -1.53
33. Cc1ccccc1Nc1cc(Nc2ccccc2C)c2ccccc2n1 : 42.2
34. COc1ccc(Cl)cc1S(=O)(=O)Nc1cccc(CCN2CCC(N3CCCCC3)CC2)c1 : 4.55
35. CCN(CC)CCNC(=O)c1ccc(NC(=O)c2cc3c(C)nn(-c4ccc(Cl)cc4)c3s2)cc1 : 2.37
36. CCOc1cccc(C(=O)Nc2cccc(CN3CCCN(Cc4ccc(O)cc4)CC3)c2)c1 : 3.14
37. NCC1CCCN1Cc1ccc(-c2cccc(-c3nc4cc(C(F)(F)F)ccc4[nH]3)c2)cc1 (centres undefined) : 1.99
38. CCN(CC)/C(=N/C(=N)Nc1ccc(Br)cc1)NCCCCCCN/C(=N\C(=N)Nc1ccc(Br)cc1)N(CC)CC : 0.19
39. FC(F)(F)c1ccc2[nH]c(-c3ccc(-c4cccc(CN5CCN(CCN6CCOCC6)CC5)c4)cc3)nc2c1 : 3.69
